Observed Property: melting point

[
  {
    "Molecule": "Cc1cc2[nH]c3ncccc3c(=O)n2n1",
    "Observed Result": "> 300 °C"
  },
  {
    "Molecule": "CCOC(=O)c1cn(C2CC2)c2c(C)c(N3CCN(Cc4ccccc4)C(C)C3)c(F)c(C)c2c1=O (configuration not stated)",
    "Observed Result": "128 to 129 °C"
  },
  {
    "Molecule": "COc1ccc(/C=C/C(=O)Nc2cc(OC)c(OC)cc2C(=O)O)cc1OC",
    "Observed Result": "236 to 239 °C"
  },
  {
    "Molecule": "O=c1[nH]nc(-c2cccc(OCc3csc(-c4ccccc4F)n3)c2)o1",
    "Observed Result": "198 to 202 °C"
  },
  {
    "Molecule": "CCCOc1cc([N+](=O)[O-])ccc1N",
    "Observed Result": "59 to 61 °C"
  },
  {
    "Molecule": "Cn1nc(OC2c3cc(C#N)ccc3OC(C)(C)C2(C)O)ccc1=O (configuration not stated)",
    "Observed Result": "197 to 199 °C"
  },
  {
    "Molecule": "O=S1(=O)c2cccc3cccc(c23)N1CCN1CCC(CCn2ccc3ccccc32)CC1",
    "Observed Result": "152 °C"
  },
  {
    "Molecule": "CC(=O)OC1C(CO)OC(n2c(=O)sc3cnc(N)nc32)C1OC(C)=O (configuration not stated)",
    "Observed Result": "109 to 111 °C"
  },
  {
    "Molecule": "Cn1cc(C2=C(c3c4n(c5ccccc35)CC(O)CC4)C(=O)NC2=O)c2ccccc21 (configuration not stated)",
    "Observed Result": "252 to 255 °C"
  },
  {
    "Molecule": "C=C(C)n1cc(C(=O)O)c(=O)c2cc(F)c(Cl)cc21",
    "Observed Result": "229 °C"
  },
  {
    "Molecule": "CS(=O)(=O)Nc1c(C(=O)c2ccccc2)[nH]c2cc(Cl)ccc12",
    "Observed Result": "215 to 218 °C"
  },
  {
    "Molecule": "CNC(=O)C(Cc1c[nH]c2ccccc12)NC(=O)Nc1n[nH]c(=S)s1 (configuration not stated)",
    "Observed Result": "205 to 210 °C"
  },
  {
    "Molecule": "Nc1c2c(nc3cc(Cl)ccc13)CCCC2=O",
    "Observed Result": "285 to 287 °C"
  },
  {
    "Molecule": "CCCCn1nc2c(N)nc3ccccc3c2c1CC",
    "Observed Result": "215 to 216 °C"
  },
  {
    "Molecule": "O=C(O)CCCC/C=C(/c1cccnc1)c1cccs1",
    "Observed Result": "84 to 85 °C"
  },
  {
    "Molecule": "Cc1c[nH]c(=O)n(Cc2ccccc2)c1=O",
    "Observed Result": "208 to 210 °C"
  },
  {
    "Molecule": "CC(CCCC(C)(C)Cl)C1CC=C2C3=C(CCC21C)C1(C)CCC(O)C(C)(C)C1CC3 (configuration not stated)",
    "Observed Result": "131 to 133 °C"
  }
]

These measurements were taken from a melting point compilation (Tetko et al.; mined from patent text by program, amines drawn as free bases though some values may be those of a salt).
